System: PC-3 prostate
testDescription: NCI-60 one-dose screen, 48 h
particulars: 10 µM unless noted
This is part of a sample that, as a whole, favours compounds with a hit. Of some 83,000 tested, about 20% had one in any assay. The source made the active and inactive calls. Rule for the calls: active = growth percent below 10; inactive = the rest.
Output constraint: value belongs to Yes (active), No (inactive)

Solved cases below.
>>> classification("O=C(Nc1cccc(-c2nc(-c3ccc(NC(=O)c4cccnc4)cc3Cl)no2)c1)Nc1ccc(NC(=O)C2CC2)c(C(F)(F)F)c1")
"Yes"
>>> classification("CCCCCCNC(=O)Oc1ccc(/C(=C(\\C)c2ccc(Cl)cc2)c2ccc(OCCN(C)C)cc2)cc1")
"No"
>>> classification("Cc1nn(-c2ccc(Cl)cc2)c(C)c1N=Nc1ccc2oc(=O)ccc2c1")
"No"
>>> classification("O=C1/C(=C/c2ccc([N+](=O)[O-])cc2)SC(=Nc2ccccc2)N1Nc1ccccc1")
"No"
>>> classification("COc1ccccc1/C=C/C=N/NC1=NC2C(S1)N(C)C(=O)N2c1ccccc1 (stereo not drawn)")
"No"

Query string: Record request — test call for CN1C(=O)N(C)C2C1NN=c1s/c(=C\c3ccccn3)c(=O)n12 (stereo not drawn)
Result string: No

Query string: I'd appreciate the recorded outcome for `COc1cc(CNC(=O)/C=C/c2ccccc2)ccc1OCC(=O)NO` from this test.
Result string: No

Query string: Could you check what this test reported for `CC1=CC(=O)CC(C)(C)[C@@]1(O)/C=C/C(C)=C\C(=O)O` ?
Result string: Yes

Query string: Record lookup: outcome of this test for `COc1ccc(NC(=O)[C@H](C)NC(=O)OC(C)(C)C)cc1C(=O)Nc1cccc(-c2cc(=O)c3c(OC)c(OC)c(OC)cc3o2)c1` ?
Result string: Yes

Query string: State the result this test recorded for `COc1ccc(CN2C(=O)/C(=C/c3nc(CO)cs3)SC2=S)cc1` .
Result string: No

Query string: Each compound tested received a call. Report the one for `O=C(CCCCCCN1CC(=O)N2[C@@H](c3cccc(Br)c3)c3[nH]c4ccccc4c3C[C@H]2C1=O)NO` .
Result string: No

Query string: Short answer needed: outcome of this test for `CC(=O)Nc1nc2c(s1)C1=CC[C@H]3[C@@H]4CC[C@H](C(C)=O)[C@@]4(C)CC[C@@H]3[C@@]1(C)CC2` ?
Result string: No

###

Below is a list of entries, each paired with its recorded growth value.
Tested on: BT-549 breast
testDescription: NCI-60 one-dose screen, 48 h (100 = growth as untreated, 0 = no growth, -100 = all killed)
particulars: 10 µM unless noted
About 83,000 compounds went through this panel and 20% of them were active in at least one assay; those are over-represented in the sample as a whole.
Write down the numeric answer in % and omit the unit.

>>> resultnumber("CCOC(=O)c1c(Nc2ccccc2)nn2c(-c3ccc(OC)c(OC)c3)ccnc12")
112
>>> resultnumber("COc1cc(C2CC(c3ccc(Nc4nc(NCCO)nc(Nc5ccc(Cl)cc5)n4)cc3)=Nc3c(N)nc(N)nc3N2)cc(OC)c1OC (stereo not given)")
52.1
>>> resultnumber("CC1CCN(S(=O)(=O)c2ncsc2-c2ccccc2)CC1")
73.5
>>> resultnumber("Oc1ccccc1-c1nnc(SCc2ccc(O)c3ncccc23)n1-c1ccccc1")
25.2

Let us move to another entry and its growth.
Query string: Record request: growth value, item `CCOc1c(C#N)c(Nc2ccc(S(N)(=O)=O)cc2)c(C#N)c2nnc(C)n12`
Result string: 97.6
